- condition summary: human
measurement name: Vd (L/kg)

>>> observed_value("Cn1ncc2cc(-c3cnc(N)c(Cl)c3N3CCC4(CCNC4=O)CC3)ccc21 [Compound 109]")
1.4

====

- procedure text: In vivo mouse PK
- condition summary: female, NMRI, plasma, iv, 0.2 mg/kg, Cl, 0.2 mg/kg iv
measurement name: clearance (mL/min/kg)

>>> observed_value("Cn1cc(-c2ccc(-c3cncc(C(F)(F)F)c3N3CCC4(CC3)CNC(=O)O4)cc2)cn1")
30.3
>>> observed_value("CC(C)(O)Cn1cc(-c2ccc(-c3cnc(N)c(Cl)c3N3CCC4(CCNC4=O)CC3)cc2)cn1")
17.8
>>> observed_value("Cn1cc(-c2ccc(-c3cncc(Cl)c3N3CCC4(CC3)NC(=O)CNC4=O)cc2)cn1")
71.2
>>> observed_value("Cc1nc(-c2ccc(-c3cncc(Cl)c3N3CCC4(CCNC4=O)CC3)cc2)cn1C")
278
>>> observed_value("Cn1cc(-c2ccc(-c3cnc(N)c(Cl)c3N3CCC4(CCNC4=O)CC3)cc2)cn1")
11.2
>>> observed_value("Cn1cc(-c2ccc(-c3cnc(N)c(C(F)(F)F)c3N3CCC4(CC3)CNC(=O)O4)cc2)cn1")
25
>>> observed_value("CN1c2ccc(-c3cnc(N)c(F)c3N3CCC4(CCNC4=O)CC3)cc2CS1(=O)=O")
21.3
>>> observed_value("CC1=NC2(CCN(c3c(Cl)cncc3-c3ccc4c(c3)CS(=O)(=O)N4C)CC2)C(=O)N1")
69.2
